Biological target: human ether-a-go-go-related-gene (hERG)-encoded potassium channel (Homo sapiens, UniProt Q12809)
Sequence (Q12809 whole entry): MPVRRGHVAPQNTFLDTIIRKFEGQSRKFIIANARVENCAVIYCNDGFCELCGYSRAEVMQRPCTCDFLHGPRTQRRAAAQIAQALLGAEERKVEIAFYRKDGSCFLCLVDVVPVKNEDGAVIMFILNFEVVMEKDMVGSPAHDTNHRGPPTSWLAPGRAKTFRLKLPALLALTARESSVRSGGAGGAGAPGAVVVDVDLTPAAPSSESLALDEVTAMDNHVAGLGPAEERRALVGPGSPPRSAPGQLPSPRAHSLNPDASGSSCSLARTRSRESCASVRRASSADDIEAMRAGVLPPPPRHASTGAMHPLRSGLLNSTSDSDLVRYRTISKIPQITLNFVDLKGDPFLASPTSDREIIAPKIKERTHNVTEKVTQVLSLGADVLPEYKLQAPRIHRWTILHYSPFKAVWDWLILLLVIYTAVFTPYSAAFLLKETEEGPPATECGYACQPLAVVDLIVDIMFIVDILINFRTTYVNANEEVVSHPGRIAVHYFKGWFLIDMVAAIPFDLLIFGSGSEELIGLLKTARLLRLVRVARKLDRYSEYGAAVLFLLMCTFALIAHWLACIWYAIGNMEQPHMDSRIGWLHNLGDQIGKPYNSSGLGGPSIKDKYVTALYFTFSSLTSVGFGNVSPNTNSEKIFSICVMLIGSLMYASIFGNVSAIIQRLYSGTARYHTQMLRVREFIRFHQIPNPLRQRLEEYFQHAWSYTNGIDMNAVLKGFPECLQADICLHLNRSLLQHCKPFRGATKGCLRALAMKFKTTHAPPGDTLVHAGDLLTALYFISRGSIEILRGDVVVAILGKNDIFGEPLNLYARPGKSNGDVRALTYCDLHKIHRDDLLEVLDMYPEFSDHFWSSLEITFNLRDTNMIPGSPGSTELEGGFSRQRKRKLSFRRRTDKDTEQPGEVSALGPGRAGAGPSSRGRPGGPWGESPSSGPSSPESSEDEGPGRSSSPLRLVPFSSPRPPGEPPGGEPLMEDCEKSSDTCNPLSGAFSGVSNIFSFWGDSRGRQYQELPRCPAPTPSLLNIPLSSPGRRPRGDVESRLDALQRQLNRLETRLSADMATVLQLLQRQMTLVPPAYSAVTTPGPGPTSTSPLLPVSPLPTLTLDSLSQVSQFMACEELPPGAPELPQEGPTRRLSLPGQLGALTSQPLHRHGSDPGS
pIC50: −log10 of the molar value.

{"input smiles": "CC(=O)Nc1cc(Cl)c(OCC(=O)O)cc1OC[C@@H](O)CN1CCC2(CC1)Cc1cc(Cl)ccc1O2", "pIC50": "< 4.52"}

###

Biological target: recombinant human CCR1 (Homo sapiens, UniProt P32246)
Construct: expressed in transfected cells; membranes
Sequence (P32246 whole entry): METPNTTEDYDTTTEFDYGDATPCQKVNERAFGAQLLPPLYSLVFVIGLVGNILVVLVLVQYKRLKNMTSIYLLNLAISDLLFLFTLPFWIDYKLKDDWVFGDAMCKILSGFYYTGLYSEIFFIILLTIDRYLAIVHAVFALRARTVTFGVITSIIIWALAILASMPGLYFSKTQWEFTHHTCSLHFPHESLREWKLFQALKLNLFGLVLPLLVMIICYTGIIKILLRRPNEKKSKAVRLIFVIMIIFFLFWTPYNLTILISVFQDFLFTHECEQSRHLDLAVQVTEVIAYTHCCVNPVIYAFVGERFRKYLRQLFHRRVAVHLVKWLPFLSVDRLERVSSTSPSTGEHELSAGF
Test: Human CCR1 binding assay ([125I] MIP-1α displacement)
Conditions: displacement of 33 pM [125I] MIP-1α, HEK-CCR1 membranes; read-out: Result from assay: IC50
pIC50: −log10 of the molar value. Where a name gives a salt, the structure may show the parent alone.
molecules and their reported pIC50
endpoint: pIC50

{"molecule": "CNC(=O)c1cc(Cl)c(OC(C)(C)C(=O)O)cc1OC[C@@H](O)CN1CCC2(CC1)Cc1cc(Cl)cc(C(C)(C)C)c1O2", "observed": 7.14}
{"molecule": "CNC(=O)c1cc(Cl)c(OC(C)(C)C(=O)O)cc1OC[C@@H](O)CN1CCC2(CC1)Cc1cc(Cl)ccc1O2 [Example 5, TFA]", "observed": 8.98}
{"molecule": "CNC(=O)c1cc(Cl)c(OC(C)(C)C(=O)O)cc1OCC(O)CN1CCC2(CC1)Cc1cc(Cl)ccc1O2 (racemic)", "observed": 8.62}
{"molecule": "CNC(=O)c1cc(Cl)c(OCC(=O)O)cc1OC[C@@H](O)CN1CCC2(CC1)Cc1cc(Cl)ccc1O2", "observed": 7.69}
{"molecule": "CN(C)C(=O)c1cc(Cl)c(OCC(=O)O)cc1OC[C@@H](O)CN1CCC2(CC1)Cc1cc(Cl)ccc1O2", "observed": 7.94}
{"molecule": "CN(C)C(=O)c1cc(Cl)c(OC(C)(C)C(=O)O)cc1OC[C@@H](O)CN1CCC2(CC1)Cc1cc(Cl)ccc1O2", "observed": 8.80}
{"molecule": "CC(=O)Nc1ccc(OCC(=O)O)cc1OC[C@@H](O)CN1CCC2(CC1)Cc1cc(Cl)ccc1O2", "observed": 8.00}
{"molecule": "O=C(O)COc1cc(OC[C@@H](O)CN2CCC3(CC2)Cc2cc(Cl)ccc2O3)c(C(=O)N2CC[C@H](O)C2)cc1Cl", "observed": 8.69}
{"molecule": "CNC(=O)c1cc(Cl)c(OC(C)(C)C(=O)O)cc1OC[C@H](O)CN1CCC2(CC1)Cc1cc(Cl)ccc1O2", "observed": 7.96}
